target: NS3h (NS3 helicase domain) (Dengue virus serotype 2 (cDNA of …, UniProt O09234 1646-2093)); assay: fluorescence intensity titration (ex 495 nm, em 525-570 nm), 1:1 single-site fit; 1.5 mM free Mg2+; no ATP stated; constant printed as 'K' in nM, subscript lost, read as Kd; settings: protein: recombinant; tags: N-terminal His6 (pET-28a); label: 5'-fluorescein
value-kind: pKd
# reply with the number alone; pKd is -log10 of concentration in mol/L

In: Recorded pKd of AGUUGAGUUG (ssRNA) [fluorescein-labeled 10-nt ssRNA] , please.
Out: 9.12
